assay: growth suppression of beta-catenin knockout HCT116, pilot screen, human colon tumor cells (AID 823); settings: CellTiter-Glo, 60 h, at 10 µM, stronger effect = lower value;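 note: 0% = wells killed by 20 µM Hyamine and 100% = untreated DMSO cell wells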
Inconclusive results are not listed.
endpoint-name: viability (%)

compound | endpoint-name | obs-value
CCOc1ccccc1N1C(=O)c2ccc(C(=O)Nc3cccnc3)cc2C1=O | viability | 107
Cc1csc(NC(=O)CSc2nnc(Cc3cccn3C)n2-c2ccc(F)cc2)n1 | viability | 94
O=C(C1CCN(c2nnc(-n3cccc3)s2)CC1)N1CCN(Cc2ccc3c(c2)OCO3)CC1 | viability | 59.1
CC(C)COC(=O)C1C2C=CC3(CN(C(C)c4ccc(Br)cc4)C(=O)C13)O2 (stereo not given) | viability | 98.3
CC(NC(=O)c1cn(C)c2ccc(S(=O)(=O)N3CCCC3)cc2c1=O)c1ccc2c(c1)OCCO2 (stereo not given) | viability | 75.5
Clc1ccc(C2Nc3ccccc3-n3cccc32)cc1 (stereo not given) | viability | 82.8
N#Cc1ccccc1Cn1c(=O)n(Cc2ccc(C(=O)NCc3ccco3)cc2)c(=O)c2sccc21 | viability | 91.3
O=C(NC1CCCc2ccccc21)C1CCN(c2nnc(-n3cccc3)s2)CC1 (stereo not given) | viability | 89.5
CCn1c(SCC(=O)Nc2ccc3c(c2)OCO3)nc2c(c1=O)SC(C)C2 (stereo not given) | viability | 99.9
Cc1cccc(OCC(=O)N2CCC(c3ccccc3)C2)c1 (stereo not given) | viability | 83
O=C(c1ccc(Br)o1)N1CCN(c2ccc3nnc(-c4ccccc4)n3n2)CC1 | viability | 45
COc1ccc(-c2nc(CS(=O)CC(=O)N3CCCC3)c(C)o2)cc1 (stereo not given) | viability | 91.8
Cc1[nH]c2ccccc2c1Cc1nnc(SCC(=O)NCc2ccco2)o1 | viability | 103
CCOC(=O)c1ccccc1NC1c2ccccc2C(=O)N1C1CCN(C(=O)OCC)CC1 (stereo not given) | viability | 50.3
Cc1cccc(-n2c(=O)cc(N3CCN(c4ccc(F)cc4)CC3)[nH]c2=O)c1 | viability | 79.3
COc1ccc(/C=N/n2cnnc2SCc2ccc(OC)cc2)cc1 | viability | 90.6
O=C(COC(=O)c1cnccn1)c1ccc(OC(=O)c2ccccc2)cc1 | viability | 93.3
N#Cc1c(NC(=O)COC(=O)C2CC3C=CC2C3)oc(-c2ccccc2)c1-c1ccccc1 (stereo not given) | viability | 92.3
O=C(Oc1cc2oc(=O)c3c(c2cc1Cl)CCCC3)c1ccco1 | viability | 108
Cn1cccc1Cc1nnc(SCC(=O)N2CCOCC2)n1-c1ccc(F)cc1 | viability | 102

###

# viability per entry
assay: HUVEC growth inhibition – cell-based, human, primary screen (AID 575); details: HUVEC proliferation, CellTiter-Glo luminescence, 72 h; at 10 µM; stronger effect = lower value;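 note: 100% = median of untreated cell wells with 0.1% DMSO on each plate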
endpoint-name: viability (%)

compound | unit | obs-value
CCCC(=O)Nc1ccccc1NC(=O)CN(C)S(=O)(=O)c1ccc(C)cc1 | % | 103
CC(NC(=O)OCc1ccccc1)C(=O)N1CC(O)CC1C(=O)O (centres undefined) | % | 82.5
Cn1c(C(=O)NCc2cccnc2)cc2sccc21 | % | 102
CC(C)NC(=O)Nc1cccs1 | % | 99.5
COCCn1nnnc1C(c1cc2cc(C)cc(C)c2[nH]c1=O)N1CCN(c2ccccc2F)CC1 (centres undefined) | % | 78.4
Cc1ccc(S(=O)(=O)N2CCN(C(=O)CSc3nc4ccccc4c(=O)[nH]3)CC2)c(C)c1 | % | 77.4
CC1CCN(C(=S)c2ccccc2O)CC1 | % | 92.8
O=S1(=O)CCC(N=Cc2cc(Br)ccc2O)C1 (centres undefined) | % | 68.9
CC(C)(C)n1nnnc1C(c1cccs1)N1CCN(Cc2ccccc2)CC1 (centres undefined) | % | 86
N/C(=N/O)c1nc(N2CCCCC2)nc(N2CCCCC2)n1 | % | 80.5
COc1ccc(Cl)c(NC(=O)NCCN2CCN(c3ccccc3)CC2)c1 | % | 107
CCOC(=O)c1cccc(NC(=O)CCn2nnc3ccccc32)c1 | % | 89.9
Cc1nnc(C)c2c(C)n(Cc3ccc4c(c3)OCO4)c(C)c12 | % | 91
COC(=O)C1=C(CSCc2ccco2)NC(=O)NC1c1cc(C)ccc1C (centres undefined) | % | 98.4
CCC1(C(=O)OC)NC(c2cccc(F)c2)C2C(=O)N(C)C(=O)C21 (centres undefined) | % | 96.1
CCN(CC)CCNC(=O)c1ccc(NC(C)=O)cc1 | % | 96.6
CC(C)(C)OC(=O)N1CC=C2C(C#N)=C(N)C(C#N)(C#N)[C@H](c3cccnc3)[C@H]2C1 | % | 81.1
Cc1cc(NC(=O)c2ccccc2)ncc1NC(=O)c1ccco1 | % | 96.2
O=C1CC(c2ccsc2)c2cc3c(cc2N1)OCCO3 (centres undefined) | % | 67.6
CC(=O)O[C@@]12CO[C@@H]1C[C@H](O)[C@@]1(C)C(=O)[C@H](O)C3=C(C)[C@@H](OC(=O)[C@H](O)[C@@H](NC(=O)OC(C)(C)C)c4ccccc4)C[C@](O)([C@@H](OC(=O)c4ccccc4)[C@H]21)C3(C)C | % | 40.7
CN(C)Cc1c(O)ccc2oc(Cc3ccccc3)cc12 | % | 91.2
COc1cccc(-c2nnc(SCC(N)=O)n2-c2ccc(Cl)cc2)c1 | % | 103
Cn1c(=O)c2c(-c3ccncc3)c3c(nc2n(C)c1=O)-c1ccccc1C3=O | % | 98.4
Cn1c(=O)c2[nH]cnc2n(C)c1=O | % | 107
O=C(c1c(Cl)nc2sccn12)N(C(=O)c1c(Cl)nc2sccn12)c1ccc(Cl)cn1 | % | 43.6
CC(C)[C@H](NC(=O)OC(C)(C)C)c1nnc(S(=O)(=O)Cc2c(F)cccc2Cl)o1 | % | 69.5
c1ccc(-c2nc3ccccc3nc2-c2ccccn2)nc1 | % | 107
COc1cc(-c2nc(S(=O)(=O)c3ccc(C)cc3)c(N(C)C)o2)cc(OC)c1OC | % | 93.2
CN(C(=O)C1CCCO1)c1nnc(-c2ccncc2)s1 (centres undefined) | % | 111
CC(C)OC(=O)CSc1nnnn1-c1ccc2c(c1)OCCO2 | % | 99
CC(C)[C@H](NC(=O)NCc1ccc(Cl)cc1)C(=O)O | % | 89.1
COc1ccccc1NC1=NC(c2ccc(Cl)cc2)N=C(N)N1 (centres undefined) | % | 68.2
CCn1c(C)nc2cc(C(=O)OC(C(F)(F)C(F)F)C(F)(F)C(F)F)ccc21 | % | 58.4
Cc1ccccc1-c1nc2ccccc2c(=O)n1C1CCS(=O)(=O)C1 (centres undefined) | % | 108
CS(=O)(=O)Nc1ccc(C(=O)NCc2ccc3c(c2)OCO3)cc1 | % | 92.2
Cn1c(NCc2cccc(Br)c2)nc2ccccc21 | % | 83.7
O=C(Nc1ccon1)c1cccc(S(=O)(=O)N2CCCC2)c1 | % | 99.5
CSc1c(C#N)c(N)c(C#N)c2c1COC(C)(C)C2 | % | 90.1
Cc1occc1C(=O)Nc1cccc2ccccc12 | % | 62.9
CN1CCN(C(=O)c2cnn3c(C(F)F)cc(C4CC4)nc23)CC1 | % | 103
CC(C)NCC(O)COc1ccc(CCOCC2CC2)cc1 (centres undefined) | % | 83.3
O=C(Nc1cccnc1)c1cc2c(ccc3ccccc32)o1 | % | 97.3
Cc1nn(-c2ccccc2)c2c1C(O)n1c(nc3ccccc31)S2 (centres undefined) | % | 50.9
Cc1ccccc1OCc1nnc(SCC(=O)NCc2ccccc2)n1C | % | 88.4

All figures here come from PubChem BioAssay.
